# Assayed Target: acetylcholine receptor
# Procedure Details: SPR, peptide at 10 uM, acetylcholine receptor immobilized on chip
Assay Metric: Binding affinity (RU)

>>> measured("RKPKR [5mer-622]")
22
>>> measured("RITER [5mer-931]")
11
>>> measured("KDSFK [5mer-948]")
18
>>> measured("KNTGR [5mer-623]")
19
>>> measured("RMMMR [5mer-634]")
26
>>> measured("KMSVR [5mer-602]")
12
>>> measured("KDTKR [5mer-646]")
16
>>> measured("KNKKR [5mer-648]")
15
